Target: Sgk1 (Homo sapiens)
Sequence (O00141 whole entry): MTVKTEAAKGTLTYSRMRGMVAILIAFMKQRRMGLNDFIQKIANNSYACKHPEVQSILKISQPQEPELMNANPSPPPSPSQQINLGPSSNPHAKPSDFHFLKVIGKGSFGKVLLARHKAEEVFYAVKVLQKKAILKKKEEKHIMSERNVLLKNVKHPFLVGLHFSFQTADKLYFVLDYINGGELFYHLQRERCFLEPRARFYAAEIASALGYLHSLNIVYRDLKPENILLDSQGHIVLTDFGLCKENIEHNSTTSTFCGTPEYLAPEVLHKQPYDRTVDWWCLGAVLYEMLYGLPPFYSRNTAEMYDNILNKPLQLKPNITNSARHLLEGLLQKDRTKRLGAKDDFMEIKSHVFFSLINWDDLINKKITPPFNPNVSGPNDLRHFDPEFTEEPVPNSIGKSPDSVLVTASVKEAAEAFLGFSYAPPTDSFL
Assay: Enzyme based assay for SGK1 (biotinylated Akt Substrates-2 peptide, Eu3+ Cryptate/XL665 detection)
Type: biochemical
Details: 50 μM ATP; read-out: Sgk1 (50 μM ATP)
REPORTED METRIC: log10 IC50 (log10 of the value in nM)
For clarity, the numbers are log10 values of IC50 expressed in nM.

compound=COc1ccc(F)c(S(=O)(=O)Nc2ccc(-c3cnc4c(N)n[nH]c4c3)nc2)c1 reported_metric="log10 IC50" reading=2.15
compound=COc1ccc(Cl)c(S(=O)(=O)Nc2ccc(-c3ccc4c(N)n[nH]c4n3)cc2)c1 reported_metric="log10 IC50" reading=1.10
compound="COc1ccc(Cl)c(S(=O)(=O)Nc2ccc(-c3cc(OCC4CNCCO4)c4cn[nH]c4c3)cc2)c1 (centres unmarked)" reported_metric="log10 IC50" reading=0.26

Each compound below has a recorded value; state its log10 IC50.
1. COc1ccc(F)c(S(=O)(=O)Nc2ccc(-c3cc(OC)c4c(N)n[nH]c4c3)cc2)c1 [drawing 108]
2. COc1ccc(F)c(S(=O)(=O)Nc2ccc(-c3cc(O[C@H]4CCOC4)c4c(N)n[nH]c4c3)cc2)c1
3. COc1ccc(F)c(S(=O)(=O)Nc2ccc(-c3cc(O[C@@H]4CCOC4)c4c(N)n[nH]c4c3)cc2)c1
4. COc1ccc(F)c(S(=O)(=O)Nc2ccc(-c3cc(OCCN(C)C)c4c(N)n[nH]c4c3)cc2)c1
5. COc1ccc(F)c(S(=O)(=O)Nc2ccc(-c3cc4[nH]ncc4c(NCC4CNCCO4)n3)cc2)c1 (centres unmarked)
6. COc1ccc(F)c(S(=O)(=O)Nc2ccc(-c3cc4[nH]ncc4c(SCC4CNCCO4)n3)cc2)c1 (centres unmarked)

OUTPUT:
1: 0.38; 2: 0.72; 3: 0.74; 4: 1.43; 5: 0.91; 6: 0.36

Can you give me log10 IC50 for all of these, one by one?
1. COc1ccc(F)c(S(=O)(=O)Nc2ccc(-c3cc4c5c(n[nH]c5c3)NC(=O)CO4)cc2)c1
2. COc1ccc(F)c(S(=O)(=O)Nc2ccc(-c3ccc4cn[nH]c4c3)nc2)c1
3. COc1ccc(F)c(S(=O)(=O)Nc2ccc(-c3cc(C)c4c(N)n[nH]c4c3)cc2)c1
4. COc1ccc(F)c(S(=O)(=O)Nc2ccc(-c3cc(OCC(C)(C)O)c4c(N)n[nH]c4c3)cc2)c1
5. COc1ccc(F)c(S(=O)(=O)Nc2ccc(-c3cc(OC(C)C)c4c(N)n[nH]c4c3)cc2)c1
6. COc1ccc(F)c(S(=O)(=O)Nc2ccc(-c3cc(CCC4CNCCO4)c4cn[nH]c4c3)cc2)c1 (centres unmarked)

OUTPUT:
[1.49, 1.97, 1.33, 1.56, 1.63, 0.51]

compound COc1ccc(F)c(S(=O)(=O)Nc2ccc(-c3ccc4cn[nH]c4n3)cc2)c1 , log10 IC50 observed: 0.72

###

Experiment: PK study in male ICR mice, intravenous and oral administration, plasma concentration
Assay type: in vivo
Details: mouse, plasma, IV (2 mg/kg)
REPORTED METRIC: Tmax (min)
Give bare numbers, in min.

Measured Tmax of COc1ccc(F)c(S(=O)(=O)Nc2ccc(-c3ccc4c(N)n[nH]c4c3)nc2)c1 : 4.8
